tested-target: Patatin-like phospholipase domain-containing protein 2 (Mus musculus)
assay-method-text: Inhibition of recombinant murine ATGL expressed in Escherichia coli XL-1 lysates
Type: subcellular
parameter-measured: pIC50
// pIC50: -log10(molar conc.)

| compound | pIC50 |
| --- | --- |
| CCOc1ccc(-c2cccc(NC(=O)N(C)C)c2)cc1 | 5.05 |
| CCOC(=O)c1cccc(-c2ccc(C(C)N(C)C)cc2)c1 (stereo not drawn) | 3.70 |

Would you kindly look at the next entry?
Q. Sample `CCOC(=O)c1cccc(-c2ccc(C(C)=O)cc2)c1` — what was its pIC50?
A. 3.70

====

tested-target: Patatin-like phospholipase domain-containing protein 2 (Mus musculus)
Sequence (Q8BJ56 whole entry): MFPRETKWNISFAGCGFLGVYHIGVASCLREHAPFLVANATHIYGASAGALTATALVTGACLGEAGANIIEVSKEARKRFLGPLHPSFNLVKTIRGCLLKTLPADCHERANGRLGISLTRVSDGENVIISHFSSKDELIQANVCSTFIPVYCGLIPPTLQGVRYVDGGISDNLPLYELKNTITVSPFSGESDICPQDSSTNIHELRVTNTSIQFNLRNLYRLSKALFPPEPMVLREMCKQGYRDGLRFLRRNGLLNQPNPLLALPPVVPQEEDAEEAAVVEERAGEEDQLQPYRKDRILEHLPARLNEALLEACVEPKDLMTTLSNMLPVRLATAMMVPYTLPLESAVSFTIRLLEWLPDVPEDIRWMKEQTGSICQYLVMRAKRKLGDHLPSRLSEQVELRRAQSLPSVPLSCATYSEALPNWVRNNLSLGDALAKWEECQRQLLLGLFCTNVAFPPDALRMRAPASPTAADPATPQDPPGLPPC
assay-method-text: Inhibition of murine ATGL expressed in COS-7 cells
Type: cell-based
parameter-measured: IC50 (µM)
Write the value in µM as a bare number.

Examples from the recorded data:
| compound | parameter-measured | units-label | numeric-value |
| --- | --- | --- | --- |
| CCOC(=O)c1cccc(-c2ccc(CN3CCN(S(C)(=O)=O)CC3)o2)c1 | IC50 | µM | 100 |
| CCOC(=O)c1cccc(-c2ccc(C(=O)CN(C)C)cc2)c1 | IC50 | µM | 200 |
| CCOC(=O)c1cccc(-c2ccc(OCC)c(N)c2)c1 | IC50 | µM | 140 |
| CCOC(=O)c1cccc(-c2ccc(OC)cc2)c1 | IC50 | µM | 80 |
| CCOC(=O)c1cccc(-c2ccc(C(C)=O)cc2)c1 | IC50 | µM | 200 |

Would you kindly look at the next entry?
Q. Sample `CCNS(=O)(=O)c1cccc(-c2ccc(OCC)cc2)c1` — what was its IC50?
A. 200

====

tested-target: Patatin-like phospholipase domain-containing protein 2 (Mus musculus, UniProt Q8BJ56)
assay-method-text: Inhibition of murine ATGL expressed in COS-7 cells
Type: cell-based
parameter-measured: pIC50
// pIC50: -log10(molar conc.)

Examples from the recorded data:
| compound | tested-target | pIC50 |
| --- | --- | --- |
| CCOc1ccc(-c2cccc(S(=O)(=O)N(C)C)c2)cc1 | Patatin-like phospholipase domain-containing protein 2 (Mus musculus, UniProt Q8BJ56) | 3.96 |
| CCOC(=O)c1cccc(-c2ccc(C(C)N(C)C)cc2)c1 (stereo not given) | Patatin-like phospholipase domain-containing protein 2 (Mus musculus, UniProt Q8BJ56) | 3.70 |
| CN(C)c1ccc(-c2cccc(NC(=O)Oc3ccccc3)c2)cc1 | Patatin-like phospholipase domain-containing protein 2 (Mus musculus, UniProt Q8BJ56) | 4.14 |

Q. Sample `CCOC(=O)c1cccc(-c2ccc(CN3CCN(C)CC3)o2)c1` — what was its pIC50?
A. 3.92

Q. Sample `CCOc1ccc(-c2cccc(C(=O)OCC(F)(F)F)c2)cc1` — what was its pIC50?
A. 3.92

Source: ChEMBL document CHEMBL4725289
